Target: COX-2 (Mus musculus)
Construct: endogenous in cells; host or cells: peritoneal macrophages of C57BL/6 mouse, aspirin-pretreated, LPS-induced
Sequence (Q05769 18-604): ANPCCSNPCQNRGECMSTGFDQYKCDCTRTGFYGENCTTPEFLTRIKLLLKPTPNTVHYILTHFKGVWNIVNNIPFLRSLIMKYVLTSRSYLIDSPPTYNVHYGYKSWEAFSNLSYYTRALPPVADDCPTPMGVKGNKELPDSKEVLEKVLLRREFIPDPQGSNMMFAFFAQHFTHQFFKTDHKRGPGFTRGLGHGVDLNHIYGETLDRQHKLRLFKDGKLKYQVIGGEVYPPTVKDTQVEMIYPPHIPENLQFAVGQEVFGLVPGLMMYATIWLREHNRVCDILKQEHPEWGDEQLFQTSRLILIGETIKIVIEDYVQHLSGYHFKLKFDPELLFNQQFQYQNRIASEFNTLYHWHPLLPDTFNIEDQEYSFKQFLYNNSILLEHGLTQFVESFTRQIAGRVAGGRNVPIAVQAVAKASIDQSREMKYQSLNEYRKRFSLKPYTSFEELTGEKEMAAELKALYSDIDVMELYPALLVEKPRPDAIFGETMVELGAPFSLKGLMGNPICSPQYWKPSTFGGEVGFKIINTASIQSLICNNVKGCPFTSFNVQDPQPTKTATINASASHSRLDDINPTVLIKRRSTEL
Assay: Evaluation of COX-2's inhibition efficacy (PGE2 radioimmuno assay, LPS-induced, aspirin-pretreated peritoneal macrophages)
Format: cell-based, C57BL/6 mouse
Settings: 0.1 μg/ml
measured.endpoint: inhibition at 0.1 µg/mL

Query :: Give the reported value of inhibition at 0.1 µg/mL for this record: CS(=O)(=O)c1ccc(-c2oc3ccccc3c(=O)c2-c2ccc(Cl)c(Cl)c2)cc1
Result :: 46%

Query :: Given the compound Cc1ccccc1-c1c(-c2ccc(S(C)(=O)=O)cc2)oc2ccccc2c1=S , write its reported inhibition at 0.1 µg/mL.
Result :: < 5%

Query :: Give the reported value of inhibition at 0.1 µg/mL for this record: COc1ccc2c(=O)c(-c3ccc(F)cc3)c(-c3ccc(S(N)(=O)=O)cc3)oc2c1
Result :: < 5%
